# test_description: melting temperature; melt of duplexes
# test_parameters: sodium 0.0675 M; strand 1 µM
observable: Tm (°C)

| substance | observable | reading_unit | readout_number |
| --- | --- | --- | --- |
| CGACGTGCTCCATGTGCTG+CAGCACATTCAGCACGTCG (((((((((..((((((((+))))))))..))))))))) | Tm | °C | 48.7 |
| CGACGTGCTGCATGTGCTG+CAGCACATACAGCACGTCG ((((((((((.((((((((+)))))))).)))))))))) | Tm | °C | 58.2 |
| CGACGTGCTAGATGTGCTG+CAGCACATCGAGCACGTCG (((((((((.(((((((((+))))))))).))))))))) | Tm | °C | 59.7 |
| CGACGTGCTCAATGTGCTG+CAGCACATTGAGCACGTCG (((((((((((((((((((+))))))))))))))))))) | Tm | °C | 64.2 |

* * *

# test_description: melting temperature; melt of duplexes
# test_parameters: sodium 0.0675 M; strand 1 µM
Binarize Tm at 50 °C; below is true (1), at or above is false (0).

| substance | classification |
| --- | --- |
| CGACGTGCAGCATGTGCTG+CAGCACATCAGGCACGTCG ((((((((...((((((((+))))))))...)))))))) | true (1) |
| CGACGTGCAACATGTGCTG+CAGCACATGCAGCACGTCG ((((((((..(((((((((+)))))))))..)))))))) | false (0) |
| CGACGTGCTTAATGTGCTG+CAGCACATTGGGCACGTCG ((((((((..(((((((((+)))))))))..)))))))) | false (0) |
| CGACGTGCCTTATGTGCTG+CAGCACATCGGGCACGTCG (((((((((..((((((((+))))))))..))))))))) | false (0) |
| CGACGTGCGCAATGTGCTG+CAGCACATTTCGCACGTCG (((((((((.(((((((((+))))))))).))))))))) | false (0) |
| CGACGTGCAGGATGTGCTG+CAGCACATCTAGCACGTCG ((((((((..(((((((((+)))))))))..)))))))) | false (0) |
| CGACGTGCGGCATGTGCTG+CAGCACATACTGCACGTCG ((((((((.(.((((((((+)))))))).).)))))))) | false (0) |
| CGACGTGCGGTATGTGCTG+CAGCACATCACGCACGTCG (((((((((..((((((((+))))))))..))))))))) | false (0) |
| CGACGTGCAGAATGTGCTG+CAGCACATTAAGCACGTCG ((((((((..(((((((((+)))))))))..)))))))) | false (0) |
| CGACGTGCGCCATGTGCTG+CAGCACATAGGGCACGTCG ((((((((.(.((((((((+)))))))).).)))))))) | false (0) |
| CGACGTGCAGCATGTGCTG+CAGCACATTACGCACGTCG ((((((((...((((((((+))))))))...)))))))) | true (1) |
